Below, each entry is listed with its recorded SI OVCAR-8 (selectivity index).
# Test system: OVCAR-8 human ovarian carcinoma cells
# assay summary: Cell proliferation assay (MTT), OVCAR-8
# Format: cell-based
# study conditions: ratio IC50 CCD-18Co / IC50 OVCAR-8
Keep it simple and answer with nothing but the number.

Worked examples follow.
{"columns": ["compound", "SI OVCAR-8 (selectivity index)"],
 "data": [
  ["CC#N.CC#N.CC#N.CC#N.Cc1cc(N=Cc2ccc(Br)cn2)c2c(c1)C1CC(O2)Oc2c(N=Cc3ccc(Br)cn3)cc(C)cc21.Cc1cc(N=Cc2ccc(Br)cn2)c2c(c1)C1CC(O2)Oc2c(N=Cc3ccc(Br)cn3)cc(C)cc21.F[B-](F)(F)F.F[B-](F)(F)F.F[B-](F)(F)F.F[B-](F)(F)F.[Fe+2].[Fe+2] [Compound 9, [Fe23_2(CH3CN)4](BF4)4]", 4.1],
  ["CC#N.CC#N.CC#N.CC#N.Cc1cc(N=Cc2ccc3ccccc3n2)c2c(c1)C1CC(O2)Oc2c(N=Cc3ccc4ccccc4n3)cc(C)cc21.Cc1cc(N=Cc2ccc3ccccc3n2)c2c(c1)C1CC(O2)Oc2c(N=Cc3ccc4ccccc4n3)cc(C)cc21.F[B-](F)(F)F.F[B-](F)(F)F.F[B-](F)(F)F.F[B-](F)(F)F.[Fe+2].[Fe+2] [Compound 12, [Fe26_2(CH3CN)4](BF4)4]", 3.2],
  ["CC#N.CC#N.CC#N.CC#N.Cc1cc(N=Cc2cccc(Br)n2)c2c(c1)C1CC(O2)Oc2c(N=Cc3cccc(Br)n3)cc(C)cc21.Cc1cc(N=Cc2cccc(Br)n2)c2c(c1)C1CC(O2)Oc2c(N=Cc3cccc(Br)n3)cc(C)cc21.F[B-](F)(F)F.F[B-](F)(F)F.F[B-](F)(F)F.F[B-](F)(F)F.[Fe+2].[Fe+2] [Compound 8, [Fe22_2(CH3CN)4](BF4)4]", 5.5]
]}

Proceeding to the next compound to report its SI OVCAR-8 (selectivity index).
Query: Item under review: N.N.O=C([O-])C1(C(=O)[O-])CCC1.[Pt+2] [Carboplatin, carboplatin, reference compound] . Reported SI OVCAR-8 (selectivity index)?
Result: 2.1

---

Below, each entry is listed with its recorded SI NCI-H460 (selectivity index).
# System: NCI-H460 human lung carcinoma cells
# assay summary: Cell proliferation assay (MTT), NCI-H460
# Format: cell-based
# study conditions: ratio IC50 CCD-18Co / IC50 NCI-H460

Worked examples follow.
{"columns": ["compound", "SI NCI-H460 (selectivity index)"],
 "data": [
  ["CC#N.CC#N.CC#N.CC#N.Cc1cc(N=Cc2ccc3ccccc3n2)c2c(c1)C1CC(O2)Oc2c(N=Cc3ccc4ccccc4n3)cc(C)cc21.Cc1cc(N=Cc2ccc3ccccc3n2)c2c(c1)C1CC(O2)Oc2c(N=Cc3ccc4ccccc4n3)cc(C)cc21.F[B-](F)(F)F.F[B-](F)(F)F.F[B-](F)(F)F.F[B-](F)(F)F.[Fe+2].[Fe+2] [Compound 12, [Fe26_2(CH3CN)4](BF4)4]", 8.1],
  ["CC#N.CC#N.CC#N.CC#N.Cc1cc(N=Cc2ccc(Br)cn2)c2c(c1)C1CC(O2)Oc2c(N=Cc3ccc(Br)cn3)cc(C)cc21.Cc1cc(N=Cc2ccc(Br)cn2)c2c(c1)C1CC(O2)Oc2c(N=Cc3ccc(Br)cn3)cc(C)cc21.F[B-](F)(F)F.F[B-](F)(F)F.F[B-](F)(F)F.F[B-](F)(F)F.[Fe+2].[Fe+2] [Compound 9, [Fe23_2(CH3CN)4](BF4)4]", 12.0],
  ["CC#N.CC#N.CC#N.CC#N.Cc1cc(N=Cc2ccccn2)c2c(c1)C1CC(O2)Oc2c(N=Cc3ccccn3)cc(C)cc21.Cc1cc(N=Cc2ccccn2)c2c(c1)C1CC(O2)Oc2c(N=Cc3ccccn3)cc(C)cc21.F[B-](F)(F)F.F[B-](F)(F)F.F[B-](F)(F)F.F[B-](F)(F)F.[Fe+2].[Fe+2] [Compound 7, [Fe21_2(CH3CN)4](BF4)4]", 18.1],
  ["CC#N.CC#N.CC#N.CC#N.COc1cccc(C=Nc2cc(C)cc3c2OC2CC3c3cc(C)cc(N=Cc4cccc(OC)n4)c3O2)n1.COc1cccc(C=Nc2cc(C)cc3c2OC2CC3c3cc(C)cc(N=Cc4cccc(OC)n4)c3O2)n1.F[B-](F)(F)F.F[B-](F)(F)F.F[B-](F)(F)F.F[B-](F)(F)F.[Fe+2].[Fe+2] [Compound 11, [Fe25_2(CH3CN)4](BF4)4]", 24.1]
]}

Query: Item under review: CC#N.CC#N.CC#N.CC#N.Cc1cc(N=Cc2cccc(C)n2)c2c(c1)C1CC(O2)Oc2c(N=Cc3cccc(C)n3)cc(C)cc21.Cc1cc(N=Cc2cccc(C)n2)c2c(c1)C1CC(O2)Oc2c(N=Cc3cccc(C)n3)cc(C)cc21.F[B-](F)(F)F.F[B-](F)(F)F.F[B-](F)(F)F.F[B-](F)(F)F.[Fe+2].[Fe+2] [Compound 10, [Fe2(4)2(CH3CN)4](BF4)4] . Reported SI NCI-H460 (selectivity index)?
Result: 33.7

Query: Moving on to the next compound: N.N.O=C([O-])C1(C(=O)[O-])CCC1.[Pt+2] [Carboplatin, carboplatin, reference compound]
Result: 18.8

Query: Moving on to the next compound: CC#N.CC#N.CC#N.CC#N.Cc1cc(N=Cc2cccc(Br)n2)c2c(c1)C1CC(O2)Oc2c(N=Cc3cccc(Br)n3)cc(C)cc21.Cc1cc(N=Cc2cccc(Br)n2)c2c(c1)C1CC(O2)Oc2c(N=Cc3cccc(Br)n3)cc(C)cc21.F[B-](F)(F)F.F[B-](F)(F)F.F[B-](F)(F)F.F[B-](F)(F)F.[Fe+2].[Fe+2] [Compound 8, [Fe22_2(CH3CN)4](BF4)4]
Result: 14.6
